Tested on: OVCAR-3 ovarian
Test: NCI-60 one-dose screen, 48 h
Details: 10 µM unless noted
This is part of a sample that, as a whole, favours compounds with a hit. Of some 83,000 tested, about 20% had one in any assay. Active and inactive are the calls of the source. Rule for the calls: active = growth percent below 10; inactive = the rest.
Outcomes you can answer with include only these: t = active, f = inactive

Solved entries:
compound: Cc1nc(N/N=C/c2cn(-c3ccccc3)nc2-c2cc3ccccc3oc2=O)sc1N=Nc1ccccc1
class name: f

compound: CC(C)C1C2=C(NCCN1C(=O)c1ccncc1)C(C)(C)N(Cc1ccccc1)C2=O (stereo not given)
class name: f

compound: COCCn1cc(-c2nc(-c3c[nH]c4ncccc34)cs2)c2ccccc21
class name: f

compound: CNCC[C@H](Oc1cccc2ccccc12)c1cccs1
class name: f

compound: Ic1ccc(Nc2nc3nonc3nc2Nc2ccc(I)cc2)cc1
class name: t

compound: COc1cc(Cc2cc(OC)c(O)c(OC)c2)cc(OC)c1O
class name: f

Any idea what this test logged for N#CC1=C(N)Oc2c(sc3c(F)cccc23)C1c1ccc([N+](=O)[O-])cc1 (stereo not given) ?
t

Any idea what this test logged for CCCCn1c(NC(C)=O)c(S(=O)(=O)c2ccccc2)c2nc3ccccc3nc21 ?
f

Any idea what this test logged for O=C(Nc1cccnc1Nc1ccc(Cl)cc1)c1cn(Cc2cccc(Oc3ccccc3)c2)nn1 ?
f

Any idea what this test logged for O=c1oc2c(cnc3ccccc32)cc1-c1cccc(Cl)c1 ?
f

Any idea what this test logged for O=C(Nc1ccc(Nc2ccncc2)cc1)c1ccc(Nc2ccnc3ccc([N+](=O)[O-])cc23)cc1 ?
f

Any idea what this test logged for CN(C)Cc1ccc(NC(=O)c2cncc(C#Cc3cnc(N)c4ncccc34)c2)cc1C(F)(F)F ?
f

----------
Reported growth values for a set of compounds
System: K-562 leukemia
Test: NCI-60 one-dose screen, 48 h (100 = growth as untreated, 0 = no growth, -100 = all killed)
Conditions: 10 µM unless noted
Compounds without any hit were thinned out: in the full panel of roughly 83,000, 20% have a hit.
Unit % implied. Number only.

In the examples that follow, each entry is paired with its recorded growth.
compound: CCOC(=O)CC1CSC(N/N=C/c2ccc(F)c(Br)c2)=N1 (stereo not given)
units symbol: %
recorded value: 90.5
//
compound: COc1ccc2c(c1)CC[C@@H]1[C@@H]2CC[C@]2(C)C3C(=CC(COC(C)=O)C4C(=O)N(c5ccc(Cl)cc5)C(=O)C43)C[C@@H]12 (stereo not given in full)
units symbol: %
recorded value: 52.4

Please supply the value of reported growth for the item O=C(/C=C/c1ccccc1)c1cccc2ccccc12
10.6

Please supply the value of reported growth for the item CC(C)=CC(=O)N[C@H]1CC[C@]2(C)C3CC[C@]4(C)C(C(C)N(C)C)=CCC4C3CCC2[C@H]1O (stereo not given in full)
19.5

Please supply the value of reported growth for the item Nc1c(Br)cc2c(c1Br)Cc1cc([N+](=O)[O-])ccc1-2
69.5

----------
Tested on: K-562 leukemia
Test: NCI-60 one-dose screen, 48 h (100 = growth as untreated, 0 = no growth, -100 = all killed)
Settings: 10 µM unless noted
About 83,000 compounds went through this panel and 20% of them were active in at least one assay; those are over-represented in the sample as a whole. Active and inactive are the calls of the source. The calls were made as follows: active = growth percent below 10; inactive = the rest.
reported endpoint: growth

compound: Cc1[nH]n(-c2cccc(Cl)c2)c(=O)c1/C=C1\C=c2ccccc2=CC1=O
reported endpoint: growth
recorded value: 99.1% (inactive)
//
compound: Nc1ncnc2c1N=C(c1ccc(F)cc1)CC(c1cccc(Nc3ccnc4cc(Cl)ccc34)c1)N2 (stereo not given)
reported endpoint: growth
recorded value: 26.7% (inactive)
//
compound: COc1ccccc1/C=C/C(=O)Nc1ccc(F)cc1
reported endpoint: growth
recorded value: 84.8% (inactive)
//
compound: CC1(C)CC[C@]2(CO)CC[C@]3(C)[C@](O)([C@H](O)C[C@@H]4[C@@]5(C)CCCNC(C)(C)[C@@H]5CC[C@]43C)[C@@H]2C1
reported endpoint: growth
recorded value: 10.3% (inactive)

Report growth on K-562 leukemia for this entry: O=C(Nc1cccnc1Nc1ccccc1)c1cn(Cc2cccc(Oc3ccccc3)c2)nn1
33% (inactive)

----------
Test system: ACHN renal
Assay: NCI-60 one-dose screen, 48 h (100 = growth as untreated, 0 = no growth, -100 = all killed)
Settings: 10 µM unless noted
This is part of a sample that, as a whole, favours compounds with a hit. Of some 83,000 tested, about 20% had one in any assay.
Reported growth values for a set of molecules
Unit % implied. Number only.

smiles: CS(=O)(=O)Nc1cc(-c2ccc3ncnc(Nc4ccc(OCc5ccccn5)c(Cl)c4)c3c2)cnc1Cl
growth, %: 23.7
--
smiles: CCCCCCCCn1ccc2cc(NC(=O)CN3CCN(c4cc(C)nc(Cl)n4)CC3)ccc21
growth, %: 86.3

Please supply the value of reported growth for the item CCOC(=O)c1c(C)nc2c(c1N)C(=O)C(=O)N2Cc1ccc(OC)cc1
66.3

Please supply the value of reported growth for the item Cc1nn(-c2ccc([N+](=O)[O-])cc2)c2ncnc(N/N=C/c3ccccc3O)c12
12

Please supply the value of reported growth for the item Cc1ccc(-c2csc(NC(=O)CSc3nc(N)cc(N)n3)n2)cc1
65.8

----------
Test system: UO-31 renal
Test: NCI-60 one-dose screen, 48 h
Conditions: 10 µM unless noted
This is part of a sample that, as a whole, favours compounds with a hit. Of some 83,000 tested, about 20% had one in any assay. The source made the active and inactive calls. Rule for the calls: active = growth percent below 10; inactive = the rest.
Outcomes you can answer with include only these: active, inactive

Solved entries:
compound: CC(O)Cc1c[nH]c(=O)[nH]c1=O (stereo not given)
class name: inactive
//
compound: COc1ccc(NC(=O)c2ccc(Nc3ncnc4c3cnn4-c3cccc(F)c3)cc2)cc1
class name: inactive
//
compound: COc1ccc(/C=C(\C(=O)NCc2cccnc2)S(=O)(=O)c2ccccc2)cc1OC
class name: inactive
//
compound: COc1ccc(-c2cn(Cc3cc4ccccc4s3)nn2)cc1OCCN1CCCCC1
class name: inactive

Any idea what this test logged for CN(C)CCCn1c2c(c3ccncc3c1=O)C(=O)c1ccccc1-2 ?
active

Any idea what this test logged for COCCOC(C)C(/C=N/NC(N)=S)=N/NC(N)=S (stereo not given) ?
inactive

Any idea what this test logged for CCN1CCN(CCNc2nccc(-c3c(-c4ccc(F)c(O)c4)nc4occn34)n2)S1(=O)=O ?
active

Any idea what this test logged for CCOC(=O)CC1CSC(N/N=C/c2ccc(F)c(Br)c2)=N1 (stereo not given) ?
inactive

Any idea what this test logged for C=C(C)[C@@H]1CC[C@]2(C)[C@H](C=CC3=C4C[C@@](C)(CO)CC[C@]4(C)CC[C@]32C)[C@@]1(C)CCCN ?
inactive

Any idea what this test logged for NS(=O)(=O)c1ccc(C(=O)NN2C(=O)c3ccccc3C2=O)cc1 ?
inactive

----------
Tested on: PC-3 prostate
Experiment: NCI-60 one-dose screen, 48 h
Conditions: 10 µM unless noted
About 83,000 compounds went through this panel and 20% of them were active in at least one assay; those are over-represented in the sample as a whole. Calls of active or inactive are those of the source. How the source made its calls: active means growth percent below 10; inactive means the rest.
Outcomes you can answer with include only these: 1 (active), -1 (inactive)

Solved entries:
compound: COc1cc(Cc2cc(-c3ccccc3)nn(Cc3ccccc3)c2=O)cc(OC)c1OC
class name: -1

compound: CC[C@H](Nc1nc(N)nc(C)c1C#N)c1nc2cccc(CN(C)c3ncc(C(=O)NO)cn3)c2c(=O)n1-c1ccccc1
class name: -1

compound: O=C(NNc1nc2cc(F)ccc2n2c(CN3CCOCC3)ccc12)c1ccccc1
class name: -1

compound: Cc1ccc(C(=O)c2ccc(CC(=O)N/N=C/c3cccc(O)c3O)n2C)cc1
class name: -1

compound: O=C1C=CC2(O)OC/C(=C\c3ccccc3)C(O)=C2C1=O (stereo not given)
class name: 1

Any idea what this test logged for CCn1cc(Cc2cc(C(=O)Nc3cc4cc(OC)c(OC)cc4c(C)n3)ccc2Cl)cn1 ?
-1

Any idea what this test logged for CCOC(=O)c1cnn(CC(C)O)c1NC(=O)NCc1cccc(F)c1 (stereo not given) ?
-1

Any idea what this test logged for Cc1ccc(S(=O)(=O)OCC#CCOS(=O)(=O)c2ccc(C)cc2)cc1 ?
-1

Any idea what this test logged for O=S(=O)(Nc1cc(F)cc(F)c1)c1ccc(-c2cnc(C3CC3)o2)cc1 ?
-1

Any idea what this test logged for Cc1cc(C(=O)CCCC(=O)c2cc(C)c(O)c(C)c2)cc(C)c1O ?
-1

----------
Tested on: T-47D breast
Assay: NCI-60 one-dose screen, 48 h (100 = growth as untreated, 0 = no growth, -100 = all killed)
Conditions: 10 µM unless noted
The panel holds about 83,000 compounds, 20% with a hit somewhere; the sample as a whole holds those more often.
reported endpoint: growth (%)
Unit % implied. Number only.

In the examples that follow, each entry is paired with its recorded growth.
molecule: COc1ccc(C(c2cc(OC)c(OC)c(OC)c2)N2CCCCC2)cc1 (stereo not given)
measurement target: T-47D breast
units symbol: %
growth: 33.6
//
molecule: COc1ccc(C(=O)Nc2ncc(Cc3ccc(Cl)cc3)s2)cc1
measurement target: T-47D breast
units symbol: %
growth: 25.9
//
molecule: CCN1C(=O)N(c2ccccc2)C2NC(=S)N(/N=C/C=C/c3ccccc3OC)C21 (stereo not given)
measurement target: T-47D breast
units symbol: %
growth: 42.3
//
molecule: Cc1ccc2cnc(N)c(C#Cc3cc(C(=O)Nc4ccc(CN5CCN(C)CC5)c(C(F)(F)F)c4)cnc3C)c2c1
measurement target: T-47D breast
units symbol: %
growth: 66.8
//
molecule: N=C(N)c1ccc(-c2ccc(-c3cc(Cl)cc(Cl)c3)s2)s1
measurement target: T-47D breast
units symbol: %
growth: -50

Please supply the value of reported growth for the item O=C(c1ccc(Br)cc1)C(Br)C(c1ccc(Cl)cc1)C(c1ccccc1)[N+](=O)[O-] (stereo not given)
76.9

Please supply the value of reported growth for the item COc1ccc(CNc2ccc3nc(NC(=O)CN4CCCCCC4)sc3c2)cc1
42.8

# credit: PubChem BioAssay (NCI)
